assay: Drug excretion in feces of human treated with [14C}LY2452473 at 15 mg, po administered as single dose by HPLC analysis; format: ADME, organism-based; conditions: read-out: Drug excretion
PARAMETER_MEASURED: dose excreted (%)
One number for each entry, in %.

In: Give a short answer stating reported dose excreted for CC(C)OC(=O)N[C@H]1Cc2c(n(Cc3ccccn3)c3ccc(C#N)cc23)C1 [LY2452473] .
Out: 1.84

###

system: Plasma; assay: Drug level in human plasma treated with [14C}LY2452473 at 15 mg, po after 8 hrs administered as single dose by HPLC analysis; assay type: ADME, organism-based; settings: in vivo
PARAMETER_MEASURED: Drug uptake (%)
Give bare numbers, in %.

C[C@@H](CO)OC(=O)N[C@H]1Cc2c(n(Cc3ccccn3)c3ccc(C#N)cc23)C1: 0
CC(C)OC(=O)N[C@H]1Cc2c(n(Cc3ccccn3)c3ccc(C#N)cc23)[C@H]1O: 36.62
CC(=O)N[C@H]1Cc2c(n(Cc3ccccn3)c3ccc(C#N)cc23)C1: 10.48

Hi, could you look up Drug uptake for each item in my list?
1. CC(C)OC(=O)N[C@H]1Cc2c(n(Cc3ccccn3)c3ccc(C#N)cc23)C1 [LY2452473]
2. C[C@H](CO)OC(=O)N[C@H]1Cc2c(n(Cc3ccccn3)c3ccc(C#N)cc23)C1

Out:
42.36
6.94
